- tested-system: HLA-A*02:17
- experiment: IEDB peptide-MHC binding, purified MHC/competitive/radioactivity; filed as Kd, often an IC50 or EC50 that approximates it; bounds were set here for any values at or beyond the usual limits of such assays
- test-context: source organism: Dengue virus 2 Jamaica/1409/1983
pKd: −log10 of the molar value.
Rule: pKd under 6 gives criterion not met, otherwise criterion met.

>  <chain-sequence>
MMATIGIALL

>  <category-label>
criterion met

$$$$

Problem: Determine whether measured pKd meets or exceeds 6 for FLEEMLRTRV
Solution: criterion met

Problem: Determine whether measured pKd meets or exceeds 6 for TLYAVATTFV
Solution: criterion met

Problem: Determine whether measured pKd meets or exceeds 6 for IMAAILAYT
Solution: criterion not met

Problem: Determine whether measured pKd meets or exceeds 6 for KVLNPYMPSV
Solution: criterion met
